Hello, the source for this data is paper PMC11677527, in case you need it.

Consider the following molecules and their measured AUMC(0-t) readings.
Assay: Verification pharmacokinetic experiment in rats, SPC 60 g crude drug/kg by gavage, UFLC-MS/MS, DAS 2.0
Type: in vivo, rat
Settings: statistical moment parameters, DAS 2.0; rats p.o. SPC 60 g crude drug/kg; Mean, 5 rats; in µg·h²/mL

# count of solved cases: 3
[
  {
    "Item Smiles": "COc1cc(-c2coc3cc(O)ccc3c2=O)ccc1O",
    "Result Type": "AUMC(0-t)",
    "Measured": 52.953
  },
  {
    "Item Smiles": "O=c1c(-c2ccc(O)cc2)coc2cc(O[C@@H]3O[C@H](CO)[C@@H](O)[C@H](O)[C@H]3O)ccc12",
    "Result Type": "AUMC(0-t)",
    "Measured": 65.207
  },
  {
    "Item Smiles": "COc1cc([C@H]2c3cc(O)c(OC)cc3C[C@@H](CO)[C@@H]2CO)ccc1O",
    "Result Type": "AUMC(0-t)",
    "Measured": 82.484
  }
]

// returns reported AUMC(0-t) for input `COc1ccc(-c2coc3c(OC)c(O)ccc3c2=O)cc1`
15.37
